# SYSTEM NAME: CDK9 (Homo sapiens)
# Construct: endogenous in cells; host or cells: MDA-MB-231
# Sequence (P50750 whole entry): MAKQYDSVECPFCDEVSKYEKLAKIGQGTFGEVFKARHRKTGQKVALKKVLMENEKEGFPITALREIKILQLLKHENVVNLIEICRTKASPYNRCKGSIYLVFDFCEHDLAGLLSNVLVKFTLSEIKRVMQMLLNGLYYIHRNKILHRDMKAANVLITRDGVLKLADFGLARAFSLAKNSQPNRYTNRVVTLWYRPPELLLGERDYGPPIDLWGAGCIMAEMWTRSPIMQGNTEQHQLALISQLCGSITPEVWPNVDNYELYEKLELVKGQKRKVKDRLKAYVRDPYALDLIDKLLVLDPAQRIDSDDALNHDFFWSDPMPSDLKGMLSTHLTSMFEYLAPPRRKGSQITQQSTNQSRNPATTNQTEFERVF
# METHOD NOTES: CDK protein degradation activity (Western blotting), CDK9
# Type: cell-based
# EXPERIMENTAL CONTEXT: MDA-MB-231 cells, 10 μM, 16 hours, Western blot
# Protocol: In order to evaluate the CDK protein degradation activity of the compounds according to the present invention, the following experiment was conducted. MDA-MB-231 cells were seeded at 5×10^5 cells per well in a 6-well plate. The next day, the compounds were treated in each well to achieve final concentrations of 100 nM, 1 μM, and 10 μM. […] Cell lysates were quantified and separated by size using sodium dodecyl sulfate-polyacrylamide gel electrophoresis (SDS-PAGE). […]
MEASURE: Enzyme degradation CDK9 (% remaining) @ 10 μM

Sample answers from the record:
O=C1CC[C@H](N2C(=O)c3ccc(N4CCC(C(=O)N5CCC6(CC5)CC(N5CCN(c7ccc(Nc8ncnc9c8ncn9[C@H]8C[C@@H](NC(=O)c9c(Cl)cccc9Cl)C8)cc7)CC5)C6)CC4)cc3C2=O)C(=O)N1    10/10/10%
O=C1CC[C@H](N2C(=O)c3ccc(N4CCC(CN5CCN(c6ccc(Nc7ncnc8c7ncn8C7CC(NC(=O)c8cccc(C(F)(F)F)n8)C7)cc6)CC5)CC4)cc3C2=O)C(=O)N1 (stereo partly shown)    0/0/0%
Cc1cccc(C(=O)NC2CC(n3cnc4c(NCCCN5CCN(CC6CCN(C(=O)CNc7ccc8c(c7)C(=O)N([C@@H]7CCC(=O)NC7=O)C8=O)CC6)CC5)ncnc43)C2)n1 (stereo partly shown)    0/0/0%

Give the measured Enzyme degradation CDK9 (% remaining) @ 10 μM of Cc1cccc(C(=O)N[C@H]2C[C@@H](n3cnc4c(NCCC5CCN(CC6CCN(C(=O)CNc7ccc8c(c7)C(=O)N(C7CCC(=O)NC7=O)C8=O)CC6)CC5)ncnc43)C2)n1 (stereo partly shown) .
0/0/0%

Next compound: `O=C1CC[C@H](N2C(=O)c3ccc(N4CCC(C(=O)N5CCC(CN6CCC(CCNc7ncnc8c7ncn8[C@H]7C[C@@H](NC(=O)Cc8ccccc8)C7)CC6)CC5)CC4)cc3C2=O)C(=O)N1`
0/0/0%
